Test system: A549 (NSCLC) cells
assay-text: Anti-proliferative activity, Cell-Titre luminescent viability assay
Assay type: cell-based
condition-notes: Homo sapiens, 72 h exposure, Cell-Titre luminescent reagent
parameter-measured: IC50 (µM)
Give bare numbers, in µM.

COc1ccc(NC(=O)c2ccn(S(=O)(=O)c3ccc4[nH]ccc4c3)n2)cc1F [Compound 116] : 13.4

Proceeding to the next compound to report its IC50.
Per the record, O=C(Nc1ccc(Cl)c(Cl)c1)c1ccn(S(=O)(=O)c2ccc3[nH]ccc3c2)n1 [Compound 83] has IC50 of 14.3

====

Please respond with reported Max. Synergy, Vinorelbine for every item in the list.
Tested on: A2780 ovarian cancer cells
assay-text: Drug combination screen, 6x6 dose matrix, Bliss-independence synergy
Format: cell-based
Set-up: key: Bliss synergy score; 0 = no synergy, negative = antagonism; highest in matrix
condition-notes: combination with vinorelbine, Bliss score, 72 h (26*: 96-well plate format)
Give bare numbers.

Look over these answered cases.
CCC(C)c1ccc(NC(=O)c2ccn(S(=O)(=O)c3ccc4[nH]ccc4c3)c2)cc1 (stereo not drawn) [Compound 24] : 14.27
O=C(Nc1ccc(C(F)(F)F)cc1)C1CCN(S(=O)(=O)c2ccc3[nH]ccc3c2)CC1 [Compound 8] : 32.29
Cc1ccc(NC(=O)c2ccn(S(=O)(=O)c3ccc4[nH]ccc4c3)c2)cc1 [Compound 43] : 10.94
O=C(Nc1ccc(F)cc1)c1ccn(S(=O)(=O)c2ccc3[nH]ccc3c2)c1 [Compound 48] : 17.28
CCC(C)c1ccc(NC(=O)C2CCN(S(=O)(=O)c3ccc4[nH]ccc4c3)CC2)cc1 (stereo not drawn) [Compound 6] : 42.36

Read the next record carefully.
Record for O=C(Nc1ccc(C(F)(F)F)cc1)c1ccn(S(=O)(=O)c2ccc3[nH]ccc3c2)c1 [Compound 26] under target or system A2780 ovarian cancer cells: Max. Synergy, Vinorelbine reported as 10.86
